Please respond with reported fold over rodent (competitive ELISA) for every item in the list.
# ASSAYED_SYSTEM: T1, recombinant hMCAM-His (human, UniProt P43121 24-559)
# T1 construct: not shown: His tag
# T1 chain: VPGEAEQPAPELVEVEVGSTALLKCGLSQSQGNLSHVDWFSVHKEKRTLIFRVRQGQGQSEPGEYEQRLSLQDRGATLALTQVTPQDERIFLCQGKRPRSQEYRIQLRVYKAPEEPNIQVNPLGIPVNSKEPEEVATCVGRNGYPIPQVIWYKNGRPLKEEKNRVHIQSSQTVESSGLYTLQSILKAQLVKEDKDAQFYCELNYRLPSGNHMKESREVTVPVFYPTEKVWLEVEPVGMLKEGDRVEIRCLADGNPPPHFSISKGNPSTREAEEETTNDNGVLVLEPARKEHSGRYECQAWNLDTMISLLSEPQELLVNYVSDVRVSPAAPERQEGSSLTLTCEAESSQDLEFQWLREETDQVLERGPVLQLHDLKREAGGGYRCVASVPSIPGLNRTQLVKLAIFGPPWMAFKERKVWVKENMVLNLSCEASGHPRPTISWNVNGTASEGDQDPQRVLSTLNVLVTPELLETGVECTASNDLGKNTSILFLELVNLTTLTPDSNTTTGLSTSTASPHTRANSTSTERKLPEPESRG
# PROTOCOL_TEXT: competitive ELISA on hMCAM-His, competitor biotinylated rodent or chimeric 1749; Expt. #2; vs rodent 1749
# Procedure: ELISA plates were coated with recombinant hMCAM-His, and blocked with casein buffer to prevent non-specific binding. Biotinylated rodent or chimeric antibody was added at a subsaturating concentration, in the presence or absence of 3× increasing concentrations of unlabeled competitor (humanized antibody, rodent, or chimeric). […] The ELISA was developed with TMB substrate and the OD450 was measured. The IC50 of the unlabeled competitor was determined using the GraphPad Prism5 software.
Report as a plain number; the unit fold is understood.

So what's the measured fold over rodent (competitive ELISA) for this one? mouse anti-human MCAM monoclonal antibody clone 1749.1.3 (antibody, V domains shown, mouse hybridoma antibody; also called rodent 1749; murine 1749.1.3 anti-MCAM antibody) VH: DVKLVESGGDLVKPGGSLKLSCAASGFTFSSYIMSWVRQTPEKRLEWVATISSGGSSTYYPDSVKGRFTISRDNAKNTLYLQMSSLKSEDTAMYYCTRDDDYDVKVFAYWGQGTLVTVSA VL: DIVMSQSPSSLAVSAGEKVTMNCKSSRSLLNSRIRKNYLAWYQQKPGQSPKLLIYWASTRESGVPDRFTGSGSGTDFTLTISSVQAEDLAVYYCKQSYNLLTFGAGTKLELK
1

What does the record list as fold over rodent (competitive ELISA) for chimeric 1749 (antibody, V domains shown) VH: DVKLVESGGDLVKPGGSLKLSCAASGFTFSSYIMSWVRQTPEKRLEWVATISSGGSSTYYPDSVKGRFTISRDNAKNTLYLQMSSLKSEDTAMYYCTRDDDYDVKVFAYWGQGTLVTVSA VL: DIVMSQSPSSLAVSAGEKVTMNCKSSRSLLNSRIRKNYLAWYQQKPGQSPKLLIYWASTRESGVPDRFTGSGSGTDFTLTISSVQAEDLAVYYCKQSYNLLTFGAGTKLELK ?
0.97

Reported fold over rodent (competitive ELISA) for chimeric 1749 TM (antibody, V domains shown) VH: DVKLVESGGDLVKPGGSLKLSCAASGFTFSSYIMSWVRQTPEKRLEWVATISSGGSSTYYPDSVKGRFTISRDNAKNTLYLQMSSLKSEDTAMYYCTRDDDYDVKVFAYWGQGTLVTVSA VL: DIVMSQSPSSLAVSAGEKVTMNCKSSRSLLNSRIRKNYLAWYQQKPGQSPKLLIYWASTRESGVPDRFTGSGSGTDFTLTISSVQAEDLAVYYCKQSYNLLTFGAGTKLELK : what is it?
1.07
